Molecular target: T1, human IL-23 (human, UniProt P29460 23-328; Q9NPF7 20-189)
T1 construct: Recombinant (Ebioscience); HIS-tagged in flow cytometry, biotinylated in some assays; also called hIL-23; rhIL-23
T1 sequence 1: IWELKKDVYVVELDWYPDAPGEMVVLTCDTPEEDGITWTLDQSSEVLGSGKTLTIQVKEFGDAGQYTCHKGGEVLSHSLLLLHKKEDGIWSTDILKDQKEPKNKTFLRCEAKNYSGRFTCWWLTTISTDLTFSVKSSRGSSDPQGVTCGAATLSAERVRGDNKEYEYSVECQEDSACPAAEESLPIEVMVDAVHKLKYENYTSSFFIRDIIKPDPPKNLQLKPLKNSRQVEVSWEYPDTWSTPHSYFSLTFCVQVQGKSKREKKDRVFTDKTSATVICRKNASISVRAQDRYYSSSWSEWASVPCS
T1 sequence 2: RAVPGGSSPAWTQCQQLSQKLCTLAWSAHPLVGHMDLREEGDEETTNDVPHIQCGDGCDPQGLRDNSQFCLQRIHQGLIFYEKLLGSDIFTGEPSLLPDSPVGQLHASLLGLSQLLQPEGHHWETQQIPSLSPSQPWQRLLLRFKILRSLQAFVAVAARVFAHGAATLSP
Test: SPR, purified scFv captured via FLAG
Kd: recorded values
Numeric answer only, unit nM assumed.

binder	unit info	measured value
scFv CE-B1 (scFv, scFv-80 variant: VH F29L; not shown: proprietary C-terminal FLAG tag) scFv: QVQLVQSGAEVKKPGASVKVSCKASGYTLTDYYLHWVRQAPGQGLEWMGWIDPENGDTEYAPKFQGRVTMTTDTSTSTAYMELRSLRSDDTAVYYCNANKELRYFDVWGQGTMVTVSSGGGGSGGGGSGGGGSEIVMTQSPATLSVSPGERATLSCRASQSISINLHWYQQKPGQAPRLLIYFASQSISGIPARFSGSGSGTEFTLTISSLQSEDFAVYYCQQSNSFPLTFGGGTKVEIKR	nM	0.098
scFv AX-G4 (scFv, scFv-80 variant: VL S26P; not shown: proprietary C-terminal FLAG tag) scFv: QVQLVQSGAEVKKPGASVKVSCKASGYTFTDYYLHWVRQAPGQGLEWMGWIDPENGDTEYAPKFQGRVTMTTDTSTSTAYMELRSLRSDDTAVYYCNANKELRYFDVWGQGTMVTVSSGGGGSGGGGSGGGGSEIVMTQSPATLSVSPGERATLSCRAPQSISINLHWYQQKPGQAPRLLIYFASQSISGIPARFSGSGSGTEFTLTISSLQSEDFAVYYCQQSNSFPLTFGGGTKVEIKR	nM	0.15

Next binder, Kd to be filled in.
Q: Entry under review: scFv BU-B1 (scFv, scFv-80 variant: VH L34M; not shown: proprietary C-terminal FLAG tag) scFv: QVQLVQSGAEVKKPGASVKVSCKASGYTFTDYYMHWVRQAPGQGLEWMGWIDPENGDTEYAPKFQGRVTMTTDTSTSTAYMELRSLRSDDTAVYYCNANKELRYFDVWGQGTMVTVSSGGGGSGGGGSGGGGSEIVMTQSPATLSVSPGERATLSCRASQSISINLHWYQQKPGQAPRLLIYFASQSISGIPARFSGSGSGTEFTLTISSLQSEDFAVYYCQQSNSFPLTFGGGTKVEIKR . Reported Kd?
Ans: 0.12

Values from patent US20110262445A1
